study_system: T1, CTLA4-Fc fusion protein (human, biotinylated where used as CTLA4-Fc-Biotin (Examples 5.1-5.3))
T1 construct: expressed in HEK293 cells; also called human CTLA4-Fc protein; CTLA4-Fc antigen protein
T1 sequence (chain, as listed by the source limits assumed): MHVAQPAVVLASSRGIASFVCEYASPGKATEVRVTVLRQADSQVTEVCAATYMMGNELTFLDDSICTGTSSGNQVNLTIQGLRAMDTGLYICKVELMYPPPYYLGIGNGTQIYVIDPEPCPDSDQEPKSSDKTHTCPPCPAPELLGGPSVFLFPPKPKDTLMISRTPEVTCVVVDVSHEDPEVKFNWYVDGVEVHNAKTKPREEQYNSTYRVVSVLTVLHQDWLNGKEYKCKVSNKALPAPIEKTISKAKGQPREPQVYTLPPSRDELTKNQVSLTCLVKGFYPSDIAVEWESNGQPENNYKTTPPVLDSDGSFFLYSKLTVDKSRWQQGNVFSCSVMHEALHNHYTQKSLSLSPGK
protocol_summary: ELISA, CTLA4-Fc coated, 10 ng VHH/well
OD (against CTLA4) reference
Enter your answer as a number in OD405; do not include the unit.

Solved cases below.
{"columns": ["binder", "OD (against CTLA4) / OD405"],
 "data": [
  ["CTLA4 heavy chain single domain antibody No. J39 (VHH, Camel VHH expressed in E. coli (PET32b), nickel-purified) VHH: QVQLQESGGGSVQAGGSLRLSCAPSRYSGALMGWFRQAPGKEREGVAVISRSGLTTYYADSVKGRFTISQDTAKNTIYLQMNSMKPEDTAMYYCVAAPEARAWSSRDPTGYNYWGQGTQVTVSS", 1.75],
  ["CTLA4 heavy chain single domain antibody No. J78 (VHH, Camel VHH expressed in E. coli (PET32b), nickel-purified) VHH: QVQLQESGGGSVQAGGSLRLSCTVSQHTSRYYYMAWFRQAPGKEREGVASIWTGGGTPGYADSAKGRFTISADNAKNTIYLQMNSLKPEDTAMYYCAADDRGGRWSLGTMAVGGYKYWGQGTQVTVSS", 0.632],
  ["CTLA4 heavy chain single domain antibody No. J42 (VHH, Camel VHH expressed in E. coli (PET32b), nickel-purified) VHH: QVQLQESGGGSVQAGGSLRLSCAASGYTYSSYNSNCMGWFRQAPGKEREGVAAIDSDGSTSYADSVKGRFTISKDNAKNTLYLQMNSLKPEDTAMYYCAASPRTCEVFSLGGSWHLFGYWGQGTQVTVSS", 1.09]
]}

Kindly review the next binder as well.
// sample CTLA4 heavy chain single domain antibody No. 138 (VHH, Camel VHH expressed in E. coli (PET32b), nickel-purified) VHH: QVQLQESGGGSVQAGGSLTLSCAASGYANSNTCMGWFRQAPGKERERVAAISGVGTGTYYADSVKGRFTISRDNGKNTLFLQMNSLKPEDTAMYYCAAAPEGRAWCSRDPSGYNYWGQGTQVTVSS , its OD (against CTLA4) was 1.84

Source of measurements: patent US20190315864A1
